- measurement.description: qHTS RealTime-Glo MT Cell Viability Assay in HEK293 cells - 16 hour (AID 1224872); also: nearly all actives have a fitted effect of over 50% in size; also: potency is read from the fitted curve at half-maximal effect
- condition: RealTime-Glo luminescence; series mostly up to 76.8 µM
Results filed as inconclusive are left out. Calls of active or inactive are those of the source. Calls follow the shape of the dose curve; as a rule, active = well fitted cell-killing curve with a large enough effect in the repeat runs; inconclusive = weak or mixed curves, or effect the other way; inactive = flat fitted curve, though single readings scatter.
parameter: Potency

Below are worked cases with known answers.
compound	Potency
CC(C)(C)OO	inactive
CCc1cc(C)cc(CC)c1-c1c(OC(=O)C(C)(C)C)n2n(c1=O)CCOCC2	inactive
Oc1ccccc1Br	inactive
Cc1cccc(OP(=O)(Oc2cccc(C)c2)Oc2cccc(C)c2)c1	inactive

INPUT: Look up Potency for this compound: `N#CCCO`
OUTPUT: inactive

INPUT: Here is the next compound: COc1ccc(OC)c(CC(C)N)c1 (stereo not drawn)
OUTPUT: inactive

INPUT: Here is the next compound: `CCOC(=O)CC(=O)CCl`
OUTPUT: 38.9 µM (active)

INPUT: Here is the next compound: `N#Cc1ccccc1Cl`
OUTPUT: inactive

INPUT: Here is the next compound: `[CH3][Hg][Cl]`
OUTPUT: 4.89 µM (active)

INPUT: Here is the next compound: `CN(C)CCc1c[nH]c2cccc(O)c12`
OUTPUT: inactive

INPUT: Here is the next compound: `NNC(=O)c1ccccc1`
OUTPUT: inactive

INPUT: Here is the next compound: CCCCCCCCCCCCCCC(Br)C(=O)O (stereo not drawn)
OUTPUT: inactive

INPUT: Here is the next compound: `N#Cc1ccccc1N`
OUTPUT: inactive

====

- measurement.description: A CellTox Green Cytotoxicity Assay to monitor cytotoxicity in HEK293 cells - 16 hour (AID 1224888); also: nearly all actives have a fitted effect of over 35% in size
- condition: CellTox Green fluorescence; series mostly up to 76.8 µM
Records with an inconclusive call do not appear. Activity calls are given as the source filed them. Calls come from the whole dose curve; as a rule, active = well fitted activation curve with a large enough effect in the repeat runs; inconclusive = weak or mixed curves; inactive = flat fitted curve, though single readings scatter.
Select the correct class. Options are label 1 = active, label 0 = inactive and nothing else.

Solved cases (6 shown):
compound	group.label
ClC(Cl)=C(Cl)Cl	label 0
O=C(O)C1C2CCC(O2)C1C(=O)O (configuration not stated)	label 0
CC(=O)c1cc(C(C)(C)C)cc2c1CCC2(C)C	label 0
CC(C)(C)C(O)/C(=C\c1ccc(Cl)cc1Cl)n1cncn1 (configuration not stated)	label 0
Cc1cccc(OP(=O)(Oc2cccc(C)c2)Oc2cccc(C)c2)c1	label 0
CCc1cc(C)cc(CC)c1-c1c(OC(=O)C(C)(C)C)n2n(c1=O)CCOCC2	label 0

INPUT: Record lookup: outcome of this test for `O=CC(Br)(Br)Br` ?
OUTPUT: label 0

INPUT: Here is the next compound: `C=CC(=O)N(C)C`
OUTPUT: label 0

INPUT: Here is the next compound: `Cc1ccc(OP(=O)(Oc2ccccc2)Oc2ccccc2)cc1`
OUTPUT: label 0

INPUT: Here is the next compound: `ClC1=C(Cl)[C@]2(Cl)[C@H]3[C@H]([C@H]4C=C[C@H]3C4)[C@@]1(Cl)C2(Cl)Cl`
OUTPUT: label 0

INPUT: Here is the next compound: `O=C(Nc1ccc2[nH]ccc2c1)c1cc2cc(F)ccc2n1Cc1cccc(F)c1`
OUTPUT: label 0

INPUT: Here is the next compound: `N#Cc1ccccc1N`
OUTPUT: label 0

INPUT: Here is the next compound: `[Cl][Sn]([c]1ccccc1)([c]1ccccc1)[c]1ccccc1`
OUTPUT: label 1

INPUT: Here is the next compound: `NNC(=O)c1ccccc1`
OUTPUT: label 0

====

- target.of.assay: Estrogen receptor (Homo sapiens) (UniProt P03372)
- Sequence (P03372 whole entry, looked up): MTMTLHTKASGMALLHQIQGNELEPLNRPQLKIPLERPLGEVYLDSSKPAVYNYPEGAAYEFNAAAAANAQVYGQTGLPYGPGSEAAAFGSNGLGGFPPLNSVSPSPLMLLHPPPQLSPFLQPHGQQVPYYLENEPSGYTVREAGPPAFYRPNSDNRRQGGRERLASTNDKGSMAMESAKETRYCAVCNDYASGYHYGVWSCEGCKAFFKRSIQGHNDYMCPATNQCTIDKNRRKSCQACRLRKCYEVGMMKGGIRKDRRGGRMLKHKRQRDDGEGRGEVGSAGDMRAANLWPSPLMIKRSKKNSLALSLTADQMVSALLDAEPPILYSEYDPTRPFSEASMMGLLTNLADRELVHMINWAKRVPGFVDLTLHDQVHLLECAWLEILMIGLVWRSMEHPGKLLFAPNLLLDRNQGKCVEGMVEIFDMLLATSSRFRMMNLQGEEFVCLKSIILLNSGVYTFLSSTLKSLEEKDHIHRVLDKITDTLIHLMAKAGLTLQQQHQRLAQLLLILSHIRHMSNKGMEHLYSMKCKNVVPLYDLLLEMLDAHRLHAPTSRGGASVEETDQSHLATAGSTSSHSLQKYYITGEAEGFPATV
- measurement.description: qHTS assay to identify small molecule agonists of the estrogen receptor alpha (ER-alpha) signaling pathway in the presence of an antagonist (AID 1259383); also: nearly all actives have a fitted effect of over 15% in size
- condition: VM7Luc4E2 cells, ERE-luciferase, +ICI-182,780, 22 h; series mostly up to 92.4 µM
Activity calls are given as the source filed them. Calls follow the shape of the full dose curve.
Select the correct class. Options are YES = active, NO = inactive and nothing else.

Solved cases (4 shown):
molecule	group.label
Nc1c(Oc2ccccc2)cc(O)c2c1C(=O)c1ccccc1C2=O	YES
BrCC(Br)c1ccccc1 (stereo unspecified)	NO
O=C(CCl)C(Cl)Cl	NO
O=CC(Br)(Br)Br	NO

INPUT: Record lookup: outcome of this test for CCCN(CC)CC1COC2(CCC(C(C)(C)C)CC2)O1 (stereo unspecified) ?
OUTPUT: NO

INPUT: Here is the next molecule: `CC(=O)c1cc(C(C)(C)C)cc2c1CCC2(C)C`
OUTPUT: NO

INPUT: Here is the next molecule: `S=C=Nc1cccc2ccccc12`
OUTPUT: NO

INPUT: Here is the next molecule: `ClC1=C(Cl)[C@]2(Cl)[C@H]3[C@H]([C@H]4C=C[C@H]3C4)[C@@]1(Cl)C2(Cl)Cl`
OUTPUT: NO

INPUT: Here is the next molecule: `ClC1=C(Cl)[C@]2(Cl)[C@@H]3[C@@H](Cl)[C@H](Cl)C[C@@H]3[C@@]1(Cl)C2(Cl)Cl`
OUTPUT: NO

INPUT: Here is the next molecule: `COc1ccc([N+](=O)[O-])cc1O`
OUTPUT: NO

INPUT: Here is the next molecule: C[C@H]1CC[C@@H]2[C@@H](C)[C@H]3[C@H](C[C@H]4[C@@H]5CC=C6CC(O[C@@H]7O[C@H](CO)[C@H](O)[C@H](O[C@@H]8O[C@H](CO)[C@@H](O)[C@H](O)[C@H]8O)[C@H]7O[C@H]7O[C@@H](C)[C@H](O)[C@@H](O)[C@H]7O)CC[C@]6(C)[C@H]5CC[C@]34C)N2C1 (stereo partly specified)
OUTPUT: NO

====

- measurement.description: qHTS assay to identify small molecule antagonists of the estrogen receptor alpha (ER-alpha) signaling pathway using the BG1 cell line - cell viability counter screen (AID 743081);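 also: compound given together with 17beta-estradiol as the ER stimulus; nearly all actives have a fitted effect of over 45% in size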; also: potency is read from the fitted curve at half-maximal effect
- condition: BG1Luc4E2 viability, CellTiter-Fluor, 22 h; series mostly up to 70.3 µM
Records with an inconclusive call do not appear. The source made the active and inactive calls. The call rests on the fitted dose curve; in most records, active means well fitted cell-killing curve with a large enough effect in the repeat runs; inconclusive means weak or mixed curves, or effect the other way; inactive means flat fitted curve, though single readings scatter.
parameter: Potency

Below are worked cases with known answers.
molecule	Potency
CCN(CC)c1c([N+](=O)[O-])cc(C(F)(F)F)c(N)c1[N+](=O)[O-]	inactive
ClC(Cl)=C(Cl)Cl	inactive
CC(=O)/C=C/c1ccc2c(c1)OCO2	inactive
C[C@]12Cc3nonc3C[C@@H]1CC[C@@H]1[C@@H]2CC[C@@]2(C)[C@H]1CC[C@]2(C)O	inactive
CCCCCCCCCCCCCN1CC(C)OC(C)C1 (configuration not stated)	inactive
CCCCCCCCCCCCCCCCCCn1cc[n+](C)c1	30.5 µM (active)

INPUT: Look up Potency for this molecule: `Cc1cc(SCc2sc(-c3ccc(C(F)(F)F)c(F)c3)nc2C)ccc1OCC(=O)O`
OUTPUT: inactive

INPUT: Here is the next molecule: `CC(=O)[O-].CC(=O)[O-].[Hg+2]`
OUTPUT: 61.1 µM (active)

====

- measurement.description: qHTS assay for identifying genotoxic compounds that show differential cytotoxicity against isogenic chicken DT40 cell lines with known DNA damage response pathways - wild type cell line (AID 743012); also: nearly all actives have a fitted effect of over 60% in size; also: potency is read from the fitted curve at half-maximal effect
- condition: DT40 wild type chicken cells viability, CellTiter-Glo, 40 h; series mostly up to 68.4 µM
Inconclusive results are not listed. Activity calls are given as the source filed them. Calls come from the whole dose curve; as a rule, active = well fitted cell-killing curve with a large enough effect in the repeat runs; inconclusive = weak or mixed curves, or effect the other way; inactive = no such curve, though single readings can be large or run the other way.
parameter: Potency

Below are worked cases with known answers.
CN(C)CCc1c[nH]c2ccc(O)cc12 inactive
c1ccc2c(c1)[nH]c1cnccc12 inactive
CC(=O)[O-].CC(=O)[O-].O.O.[Cd+2] 67.6 µM (active)
CCCCOCN(C(=O)CCl)c1c(CC)cccc1CC 8.63 µM (active)
Oc1ccc2ccc3cccc4ccc1c2c34 30.6 µM (active)
Cn1cc(C2=C(c3cn(C4CCN(Cc5ccccn5)CC4)c4ccccc34)C(=O)NC2=O)c2ccccc21 inactive
O=[N+]([O-])c1ccc(Oc2ccc(C(F)(F)F)cc2[N+](=O)[O-])cc1 19.3 µM (active)
O=c1[nH]c2ccccc2n1CCCN1CCC(n2c(=O)[nH]c3cc(Cl)ccc32)CC1 26.6 µM (active)
CC(C)(O)c1cnn2c(-c3ccc(F)c(-c4c(F)cccc4C#N)c3)cnc2n1 48.6 µM (active)
CC1(C)CN=C(NN=C(/C=C/c2ccc(C(F)(F)F)cc2)/C=C/c2ccc(C(F)(F)F)cc2)NC1 4.33 µM (active)

INPUT: Look up Potency for this compound: `O=[N+]([O-])c1cc(C(F)(F)F)c(Cl)c([N+](=O)[O-])c1Cl`
OUTPUT: 0.386 µM (active)

====

- target.of.assay: Aryl hydrocarbon receptor (Homo sapiens)
- measurement.description: qHTS assay to identify small molecule that activate the aryl hydrocarbon receptor (AhR) signaling pathway (AID 743085); also: nearly all actives have a fitted effect of over 15% in size;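 as to activation: HG2L7.5c1 human HepG2 liver cells with stably integrated DRE-driven firefly reporter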
- condition: HepG2 AhR-luc (HG2L7.5c1), luciferase, 24 h; series mostly up to 70.3 µM
Records with an inconclusive call do not appear. Calls of active or inactive are those of the source. Calls follow the shape of the dose curve; as a rule, active = well fitted activation curve with a large enough effect in the repeat runs; inconclusive = weak or mixed curves; inactive = no such curve, though single readings can be large or run the other way.
Select the correct class. Options are active, inactive and nothing else.

Solved cases (5 shown):
compound	target.of.assay	group.label
c1ccc2c(c1)[nH]c1cnccc12	Aryl hydrocarbon receptor (Homo sapiens)	active
CC[C@H](C)[C@H]1O[C@]2(C=C[C@@H]1C)C[C@@H]1C[C@@H](C/C=C(\C)[C@@H](O[C@H]3C[C@H](OC)[C@@H](O[C@H]4C[C@H](OC)[C@@H](O)[C@H](C)O4)[C@H](C)O3)[C@@H](C)/C=C/C=C3\CO[C@@H]4[C@H](O)C(C)=C[C@@H](C(=O)O1)[C@]34O)O2	Aryl hydrocarbon receptor (Homo sapiens)	inactive
Fc1cccc(Cl)c1CCl	Aryl hydrocarbon receptor (Homo sapiens)	inactive
CC(C)N1C(=O)N(c2ccccc2)CSC1=NC(C)(C)C	Aryl hydrocarbon receptor (Homo sapiens)	inactive
BrCBr	Aryl hydrocarbon receptor (Homo sapiens)	inactive

INPUT: Record lookup: outcome of this test for `CCc1nn(C)c(C(=O)NCc2ccc(C(C)(C)C)cc2)c1Cl` ?
OUTPUT: inactive

INPUT: Here is the next compound: CCCCCCCCCCCCCN1CC(C)OC(C)C1 (centres undefined)
OUTPUT: inactive

INPUT: Here is the next compound: `O=C(NC(=O)c1c(F)cccc1F)Nc1cc(Cl)c(OC(F)(F)C(F)F)c(Cl)c1`
OUTPUT: active

INPUT: Here is the next compound: `C[C@@H]1O[C@@H](O[C@H]2C[C@@H](O)[C@]3(CO)[C@H]4[C@H](O)C[C@]5(C)[C@@H](C6=CC(=O)OC6)CC[C@]5(O)[C@@H]4CC[C@]3(O)C2)[C@H](O)[C@H](O)[C@H]1O`
OUTPUT: inactive

INPUT: Here is the next compound: CNC(C)Cc1ccc2c(c1)OCO2 (centres undefined)
OUTPUT: inactive
